All values here come from patent US11225465B2.

Tested on: S. typhimurium TA100
Assay Notes: Microdilution assay, MIC
Format: cell-based
Experimental Parameters: Salmonella enterica, 20 h, read-out: MIC S. typhimurium TA100
Recorded Endpoint: MIC

Below, 5 compounds whose answers are already recorded.
[[record]]
compound = "COc1c(NC(=O)c2ccc(NC(=O)c3ccc(NC(=O)C(Cc4c[nH]nn4)NC(=O)c4ccc(NC(=O)/C(C)=C/c5ccc(O)cc5)cc4)cc3)c(OC)c2O)ccc(C(=O)O)c1O (stereo not drawn)"
recorded_endpoint = "MIC"
assay_result = "≤ 16 µg/mL"

[[record]]
compound = "COc1c(NC(=O)c2ccc(NC(=O)c3ccc(NC(=O)[C@H](Cc4cnn[nH]4)NC(=O)c4ccc(NC(=O)/C(C)=C/c5ccc(O)cc5)cc4)cc3O)c(OC)c2O)ccc(C(=O)O)c1O"
recorded_endpoint = "MIC"
assay_result = "16 µg/mL"

[[record]]
compound = "C#CCOc1ccc(/C=C(\\C)C(=O)Nc2ccc(C(=O)NC(CC3(C)N=N3)C(=O)Nc3ccc(C(=O)Nc4ccc(C(=O)Nc5ccc(C(=O)O)c(O)c5OC)c(O)c4OC)cc3)cc2)cc1 (stereo not drawn)"
recorded_endpoint = "MIC"
assay_result = "≤ 16 µg/mL"

[[record]]
compound = "COc1c(NC(=O)c2ccc(NC(=O)c3ccc(NC(=O)C4(NC(=O)c5ccc(NC(=O)/C(C)=C/c6ccc(O)cc6)cc5)CCN(C)CC4)cc3)c(OC)c2O)ccc(C(=O)O)c1O"
recorded_endpoint = "MIC"
assay_result = "2000 µg/mL"

[[record]]
compound = "COc1c(NC(=O)c2ccc(NC(=O)c3ccc(N(C)C(=O)[C@H](Cc4c[nH]nn4)NC(=O)c4ccc(NC(=O)/C(C)=C/c5ccc(O)cc5)cc4)cc3)c(OC)c2O)ccc(C(=O)O)c1O"
recorded_endpoint = "MIC"
assay_result = "2000 µg/mL"


// MIC lookup, compound = COc1c(NC(=O)c2ccc(NC(=O)c3ccc(NC(=O)[C@H](CC#N)NC(=O)c4ccc(NC(=O)/C(C)=C/c5ccc(O)cc5)cc4)cc3O)c(OC)c2O)ccc(C(=O)O)c1O , result: 16 µg/mL

GET /value?item= COc1c(NC(=O)c2ccc(NC(=O)c3ccc(NC(=O)C(Cc4cn(C)cn4)NC(=O)c4ccc(NC(=O)/C(C)=C/c5ccc(O)cc5)cc4)cc3)c(OC)c2O)ccc(C(=O)O)c1O (stereo not drawn) &field=MIC returns 63 µg/mL

Entry COc1c(NC(=O)c2ccc(NC(=O)c3ccc(NC(=O)[C@H](Cc4ccncc4)NC(=O)c4ccc(NC(=O)/C(C)=C/c5ccc(O)cc5)cc4)cc3)c(OC)c2O)ccc(C(=O)O)c1O — recorded MIC = 125 µg/mL

Form: compound = COc1c(NC(=O)c2ccc(NC(=O)c3ccc(NC(=O)[C@H](CC#N)NC(=O)c4ccc(NC(=O)/C(C)=C/c5ccc(O)cc5)cc4)c(O)c3)c(OC)c2O)ccc(C(=O)O)c1O ; MIC = 500 µg/mL
